- Target desc: T1, human LILRB2 (human, UniProt Q8N423 22-458, limits assumed)
- T1 construct: Bought protein coated on the ELISA plate
- T1 sequence (Q8N423 22-458 limits assumed): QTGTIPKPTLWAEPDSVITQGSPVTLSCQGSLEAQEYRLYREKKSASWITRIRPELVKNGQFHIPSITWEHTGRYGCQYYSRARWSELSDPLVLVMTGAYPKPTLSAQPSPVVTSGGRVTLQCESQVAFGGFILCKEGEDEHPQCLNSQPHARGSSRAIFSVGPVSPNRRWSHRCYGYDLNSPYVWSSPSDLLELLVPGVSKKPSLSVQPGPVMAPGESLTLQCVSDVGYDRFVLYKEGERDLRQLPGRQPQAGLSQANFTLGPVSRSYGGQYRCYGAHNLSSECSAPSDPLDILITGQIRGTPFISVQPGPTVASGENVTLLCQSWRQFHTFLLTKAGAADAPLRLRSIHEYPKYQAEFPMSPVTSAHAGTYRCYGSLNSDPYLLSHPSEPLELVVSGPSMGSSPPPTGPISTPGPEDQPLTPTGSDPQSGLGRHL
- Protocol: ELISA, receptor coated at 10 µg/mL, HLA2-Fc at 10 µg/mL, anti-human Fc-HRP
Measurement name: binding result

[[record]]
binder = "B272-Fc (Fc fusion, also called B27052-Fc; HLA2-Fc; not shown: human IgG4 Fc (human IgG4-Fc vector, InvivoGen)) GSHSMRYFHTSVSRPGRGEPRFITVGYVDDTLFVRFDSDAASPREEPRAPWIEQEGPEYWDRETQICKAKAQTDREDLRTLLRYYNQSEAGSHTLQNMYGCDVGPDGRLLRGYHQDAYDGKDYIALNEDLSSWTAADTAAQITQRKWEAARVAEQLRAYLEGECVEWLRRYLENGKETLQRADPPKTHVTHHPISDHEATLRCWALGFYPAEITLTWQRDGEDQTQDTELVETRPAGDRTFQKWAAVVVPSGEEQRYTCHVQHEGLPKPLTLRW"
value = "binds"


These entries and their values trace back to patent US11279747.
